- TARGET OF ASSAY: Mcl-1 protein (UniProtKB primary accession number: Q07820) (Homo sapiens, UniProt Q07820)
- Sequence (Q07820 whole entry): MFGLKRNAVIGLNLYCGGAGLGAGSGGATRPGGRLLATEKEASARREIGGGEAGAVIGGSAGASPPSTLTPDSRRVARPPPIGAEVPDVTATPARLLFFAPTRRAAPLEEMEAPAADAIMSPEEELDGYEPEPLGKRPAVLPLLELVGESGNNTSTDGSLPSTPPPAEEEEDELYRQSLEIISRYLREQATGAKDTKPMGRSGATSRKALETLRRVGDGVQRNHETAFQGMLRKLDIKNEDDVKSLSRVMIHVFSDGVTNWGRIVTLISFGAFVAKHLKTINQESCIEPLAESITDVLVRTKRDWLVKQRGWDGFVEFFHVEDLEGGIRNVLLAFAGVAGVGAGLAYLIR
- ASSAY INFO: Inhibition of Mcl-1 by fluorescence polarisation, Method 1
- Format: binding
- TEST SETTINGS: fluorescence polarisation test; Method 2 values are underlined in the patent (underlining not visible here); read-out: IC50 (M) Mcl-1 FP

COMPOUND | VALUE UNITS | IC50
COc1ncc(-c2ccsc2)c(COc2ccccc2CC(Oc2ncnc3sc(-c4ccc(F)cc4)c(-c4ccc(OCCN5CCN(C)CC5)c(Cl)c4C)c23)C(=O)O)n1 (stereo not drawn) [Example 100] | M | 1.2e-08
COc1ccccc1CC(Oc1ncnc2sc(-c3ccco3)c(-c3ccc(OCCN)c(Cl)c3C)c12)C(=O)O (stereo not drawn) [Example 319] | M | 1.5e-08
Cc1c(-c2c(-c3ccc(F)o3)sc3ncnc(OC(Cc4ccccc4OCC(=O)NCCc4ccccc4)C(=O)O)c23)ccc(OCCN2CCN(C)CC2)c1Cl (stereo not drawn) [Example 155] | M | 7.6e-09
Cc1c(-c2c(-c3ccco3)sc3ncnc(OC(C(=O)O)c4ccccc4)c23)ccc(OCCN2CCN(C)CC2)c1Cl (stereo not drawn) [Example 340] | M | 6.7e-07
Cc1c(-c2c(-c3ccc(F)cc3)sc3ncnc(OC(Cc4ccccc4OCc4ccnc(CCN(C)C)n4)C(=O)O)c23)ccc(OCCN2CCN(C)CC2)c1Cl (stereo not drawn) [Example 43] | M | 9.8e-09
COc1ccccc1CC(Oc1ncnc2sc(-c3ccco3)c(-c3ccc(OCCN4CCN(CC(F)F)CC4)c(Cl)c3C)c12)C(=O)O (stereo not drawn) [Example 328] | M | 5e-09
CCN1CCN(CCOc2ccc(-c3c(-c4ccco4)sc4ncnc(OC(Cc5ccccc5OC)C(=O)O)c34)c(C)c2Cl)CC1 (stereo not drawn) [Example 322] | M | 4.3e-09
Cc1c(-c2c(-c3ccco3)sc3ncnc(OC(Cc4ccccc4OC(C)c4ccncc4)C(=O)O)c23)ccc(OCCN2CCN(C)CC2)c1Cl (stereo not drawn) [Example 208] | M | 5.5e-09
Cc1c(-c2c(-c3ccco3)sc3ncnc(OC(Cc4ccccc4OCc4cncnc4)C(=O)O)c23)ccc(OCCN2CCN(C)CC2)c1Cl (stereo not drawn) [Example 277] | M | 4.8e-09
Cc1c(-c2c(-c3ccc(F)o3)sc3ncnc(OC(Cc4ccccc4OCc4ccnn4C)C(=O)O)c23)ccc(OCCN2CCN(C)CC2)c1Cl (stereo not drawn) [Example 180] | M | 8.9e-09
Cc1c(-c2c(-c3ccco3)sc3ncnc(OC(Cc4ccccc4OCc4c5ccccc5nn4C)C(=O)O)c23)ccc(OCCN2CCN(C)CC2)c1Cl (stereo not drawn) [Example 282] | M | 4e-08
Cc1c(-c2c(-c3ccc(F)cc3)sc3ncnc(OC(Cc4ccccc4OCc4ccnc(C(C)C)n4)C(=O)O)c23)ccc(OCCN2CCN(C)CC2)c1Cl (stereo not drawn) [Example 24] | M | 8.1e-09

====

- System: H929 multiple myeloma tumour line
- ASSAY INFO: In vitro cytotoxicity, Microculture Tetrazolium Assay
- Assay type: cell-based
- TEST SETTINGS: Homo sapiens, NCI-H929, 48 h, H929 cells, 48 hours exposure, MTT; read-out: IC50 (μM) MTT H929

COMPOUND | IC50 (µM)
COc1ccccc1CC(Oc1ncnc2sc(-c3ccco3)c(-c3ccc(OCC4CN(C)CCN4C)c(Cl)c3C)c12)C(=O)O (stereo not drawn) [Example 313] | 0.886
COc1ccc(COc2ccccc2CC(Oc2ncnc3sc(-c4ccco4)c(-c4ccc(OCCN5CCN(C)CC5)c(Cl)c4C)c23)C(=O)O)nc1 (stereo not drawn) [Example 233] | 0.099
Cc1c(-c2c(-c3ccc(F)o3)sc3ncnc(OC(Cc4ccccc4OCc4cncnc4)C(=O)O)c23)ccc(OCCN2CCN(C)CC2)c1Cl (stereo not drawn) [Example 190] | 0.037

====

Each entry below lists one item and its recorded IC50 value.
- TARGET OF ASSAY: Mcl-1 protein (UniProtKB primary accession number: Q07820) (Homo sapiens, UniProt Q07820)
- ASSAY INFO: Inhibition of Mcl-1 by fluorescence polarisation, Method 1
- Assay type: binding
- TEST SETTINGS: fluorescence polarisation test; Method 2 values are underlined in the patent (underlining not visible here); read-out: IC50 (M) Mcl-1 FP
REPORTED ENDPOINT: IC50 (M)

MOLECULE | TARGET OF ASSAY | REPORTED ENDPOINT | RECORDED VALUE
CC(=O)NCc1ccccc1CC(Oc1ncnc2sc(-c3ccco3)c(-c3ccc(OCCN4CCN(C)CC4)c(Cl)c3C)c12)C(=O)O (stereo not drawn) [Example 356] | Mcl-1 protein (UniProtKB primary accession number: Q07820) (Homo sapiens, UniProt Q07820) | IC50 | 1.1e-08
Cc1ccncc1-c1nccc(COc2ccccc2CC(Oc2ncnc3sc(-c4ccc(F)cc4)c(-c4ccc(OCCN5CCN(C)CC5)c(Cl)c4C)c23)C(=O)O)n1 (stereo not drawn) [Example 123] | Mcl-1 protein (UniProtKB primary accession number: Q07820) (Homo sapiens, UniProt Q07820) | IC50 | 4.3e-09
COc1cc(-c2sc3ncnc(OC(Cc4ccccc4OCC4CCCO4)C(=O)O)c3c2-c2ccc(OCCN3CCN(C)CC3)c(Cl)c2C)ccc1F (stereo not drawn) [Example 379] | Mcl-1 protein (UniProtKB primary accession number: Q07820) (Homo sapiens, UniProt Q07820) | IC50 | 1.3e-08
CCc1sc2ncnc(OC(Cc3ccccc3)C(=O)O)c2c1-c1ccc(OCC(=O)N(C)C)c(Cl)c1C (stereo not drawn) [Example 390] | Mcl-1 protein (UniProtKB primary accession number: Q07820) (Homo sapiens, UniProt Q07820) | IC50 | 4e-08
Cc1c(-c2c(-c3ccc(F)cc3)sc3ncnc(OC(Cc4ccccc4OCc4ccnc(CC5CC5)n4)C(=O)O)c23)ccc(OCCN2CCN(C)CC2)c1Cl (stereo not drawn) [Example 39] | Mcl-1 protein (UniProtKB primary accession number: Q07820) (Homo sapiens, UniProt Q07820) | IC50 | 4.8e-09
Cc1c(-c2c(-c3ccc(F)cc3)sc3ncnc(OC(Cc4ccccc4OCc4ccnc(-c5ccc(Cl)cc5)n4)C(=O)O)c23)ccc(OCCN2CCN(C)CC2)c1Cl (stereo not drawn) [Example 27] | Mcl-1 protein (UniProtKB primary accession number: Q07820) (Homo sapiens, UniProt Q07820) | IC50 | 6.6e-09
COCCOc1cc(COc2ccccc2CC(Oc2ncnc3sc(-c4ccc(F)cc4)c(-c4ccc(OCCN5CCN(C)CC5)c(Cl)c4C)c23)C(=O)O)ccn1 (stereo not drawn) [Example 22] | Mcl-1 protein (UniProtKB primary accession number: Q07820) (Homo sapiens, UniProt Q07820) | IC50 | 8.3e-09
Cc1c(-c2c(-c3ccc(F)cc3)sc3ncnc(OC(Cc4ccccc4OCc4ccnc(-c5cccs5)c4)C(=O)O)c23)ccc(OCCN2CCN(C)CC2)c1Cl (stereo not drawn) [Example 18] | Mcl-1 protein (UniProtKB primary accession number: Q07820) (Homo sapiens, UniProt Q07820) | IC50 | 8.3e-09
Cc1c(-c2c(-c3ccc(F)cc3)sc3ncnc(OC(Cc4ccccc4OCc4ccnn4C(C)C)C(=O)O)c23)ccc(OCCN2CCN(C)CC2)c1Cl (stereo not drawn) [Example 71] | Mcl-1 protein (UniProtKB primary accession number: Q07820) (Homo sapiens, UniProt Q07820) | IC50 | 9.4e-09
Cc1c(-c2c(-c3ccc(F)o3)sc3ncnc(OC(Cc4ccccc4OCc4ccnn4CC(F)(F)F)C(=O)O)c23)ccc(OCCN(C)C)c1Cl (stereo not drawn) [Example 205] | Mcl-1 protein (UniProtKB primary accession number: Q07820) (Homo sapiens, UniProt Q07820) | IC50 | 3.8e-09
Cc1c(-c2c(-c3ccco3)sc3ncnc(OC(Cc4ccccc4OCc4ncccn4)C(=O)O)c23)ccc(OCCN2CCN(C)CC2)c1Cl (stereo not drawn) [Example 286] | Mcl-1 protein (UniProtKB primary accession number: Q07820) (Homo sapiens, UniProt Q07820) | IC50 | 7.6e-09
Cc1c(-c2c(-c3ccc(F)cc3)sc3ncnc(OC(Cc4ccccc4OCc4ccnn4CCCC(F)(F)F)C(=O)O)c23)ccc(OCCN2CCN(C)CC2)c1Cl (stereo not drawn) [Example 84] | Mcl-1 protein (UniProtKB primary accession number: Q07820) (Homo sapiens, UniProt Q07820) | IC50 | 3.8e-09
Cc1c(-c2c(-c3ccc(Cl)o3)sc3ncnc(OC(Cc4ccccc4OCC4CCCO4)C(=O)O)c23)ccc(OCCN2CCN(C)CC2)c1Cl (stereo not drawn) [Example 364] | Mcl-1 protein (UniProtKB primary accession number: Q07820) (Homo sapiens, UniProt Q07820) | IC50 | 5.1e-09
COc1ccccc1CC(Oc1ncnc2sc(-c3ccco3)c(-c3ccc(OCC4CNCCO4)c(Cl)c3C)c12)C(=O)O (stereo not drawn) [Example 315] | Mcl-1 protein (UniProtKB primary accession number: Q07820) (Homo sapiens, UniProt Q07820) | IC50 | 2.2e-08
Cc1c(-c2c(-c3ccco3)sc3ncnc(OC(Cc4ccccc4OCc4cn(Cc5ccccc5)nn4)C(=O)O)c23)ccc(OCCN2CCN(C)CC2)c1Cl (stereo not drawn) [Example 294] | Mcl-1 protein (UniProtKB primary accession number: Q07820) (Homo sapiens, UniProt Q07820) | IC50 | 1.6e-08
Cc1c(-c2c(-c3ccc(F)cc3)sc3ncnc(OC(Cc4ccccc4OCc4ccnc(C(F)(F)F)c4)C(=O)O)c23)ccc(OCCN2CCN(C)CC2)c1Cl (stereo not drawn) [Example 17] | Mcl-1 protein (UniProtKB primary accession number: Q07820) (Homo sapiens, UniProt Q07820) | IC50 | 1.2e-08
Cc1c(-c2c(-c3ccc(F)o3)sc3ncnc(OC(Cc4ccccc4OCC4CCCO4)C(=O)O)c23)ccc(OCCN2CCN(C)CC2)c1Cl (stereo not drawn) [Example 150] | Mcl-1 protein (UniProtKB primary accession number: Q07820) (Homo sapiens, UniProt Q07820) | IC50 | 9.3e-09
Cc1c(-c2c(-c3ccco3)sc3ncnc(OC(Cc4ccccc4OCCC(F)(F)F)C(=O)O)c23)ccc(OCCN2CCN(C)CC2)c1Cl (stereo not drawn) [Example 288] | Mcl-1 protein (UniProtKB primary accession number: Q07820) (Homo sapiens, UniProt Q07820) | IC50 | 1.2e-08
Cc1cc(COc2ccccc2CC(Oc2ncnc3sc(-c4ccc(F)o4)c(-c4ccc(OCCN5CCN(C)CC5)c(Cl)c4C)c23)C(=O)O)ncn1 (stereo not drawn) [Example 161] | Mcl-1 protein (UniProtKB primary accession number: Q07820) (Homo sapiens, UniProt Q07820) | IC50 | 3.9e-09
COc1ccccc1CC(Oc1ncnc2sc(-c3ccco3)c(-c3ccc(OCC4CCN(C)C4)c(Cl)c3C)c12)C(=O)O (stereo not drawn) [Example 310] | Mcl-1 protein (UniProtKB primary accession number: Q07820) (Homo sapiens, UniProt Q07820) | IC50 | 1.4e-08
Cc1c(-c2c(-c3ccco3)sc3ncnc(OC(Cc4ccccc4OCc4cn(C)cn4)C(=O)O)c23)ccc(OCCN2CCN(C)CC2)c1Cl (stereo not drawn) [Example 267] | Mcl-1 protein (UniProtKB primary accession number: Q07820) (Homo sapiens, UniProt Q07820) | IC50 | 8.8e-09
Cc1c(-c2c(-c3ccc(F)cc3)sc3ncnc(OC(Cc4ccccc4OCc4ccnc(C5CCCC5)n4)C(=O)O)c23)ccc(OCCN2CCN(C)CC2)c1Cl (stereo not drawn) [Example 28] | Mcl-1 protein (UniProtKB primary accession number: Q07820) (Homo sapiens, UniProt Q07820) | IC50 | 4.5e-09
COc1ccc(-c2nccc(COc3ccccc3CC(Oc3ncnc4sc(-c5ccc(F)cc5)c(-c5ccc(OCCN6CCN(C)CC6)c(Cl)c5C)c34)C(=O)O)n2)cn1 (stereo not drawn) [Example 111] | Mcl-1 protein (UniProtKB primary accession number: Q07820) (Homo sapiens, UniProt Q07820) | IC50 | 3.3e-09
Cc1cncc(-c2nccc(COc3ccccc3CC(Oc3ncnc4sc(-c5ccc(F)cc5)c(-c5ccc(OCCN6CCN(C)CC6)c(Cl)c5C)c34)C(=O)O)n2)c1 (stereo not drawn) [Example 122] | Mcl-1 protein (UniProtKB primary accession number: Q07820) (Homo sapiens, UniProt Q07820) | IC50 | 3.8e-09
